- Measured On: Elastase (Sus scrofa, UniProt P00772)
- Construct: purchased Sigma-Aldrich
- Sequence (P00772 27-266): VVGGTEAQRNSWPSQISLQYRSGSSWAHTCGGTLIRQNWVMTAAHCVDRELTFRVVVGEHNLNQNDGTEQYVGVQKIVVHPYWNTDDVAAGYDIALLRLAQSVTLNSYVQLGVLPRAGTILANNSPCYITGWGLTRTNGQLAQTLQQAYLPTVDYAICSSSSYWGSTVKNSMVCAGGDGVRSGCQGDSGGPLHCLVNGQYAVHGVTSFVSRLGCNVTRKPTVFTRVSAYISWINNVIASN
- Test Protocol: Elastase inhibition, fluorogenic substrate assay (MeOSuc-Ala-Ala-Pro-Val-AMC)
- Assay type: biochemical, Sus domesticus
- Condition: Elastase; inhibitor concentration 37.037 nM; 40 min pre-incubation
Please enter Satisfied where Mean (RFU/s) is greater than or equal to 0.1 RFU/s, and Not satisfied where it is lower.

Molecule	Label Class
CC=C1NC(=O)[C@@H](NC(=O)[C@@H](NC(=O)[C@@H]2CCCN2C(=O)CCC)[C@@H](C)OC(=O)C2CCCN2C(=O)CCC)[C@@H](C)OC(=O)[C@H](C(C)C)NC(=O)[C@H](Cc2ccc(O)cc2)N(C)C(=O)[C@H](CC(C)C)N2C(=O)[C@H](CC[C@H]2O)NC1=O (stereo partly drawn) [Rivulariapeptolide 1121, rivulariapeptolide 1121]	Not satisfied
C/C=C1\NC(=O)[C@@H](NC(=O)[C@@H](NC(=O)[C@H](C)NC(=O)CCC)[C@@H](C)O)[C@@H](C)OC(=O)[C@H](C(C)C)NC(=O)[C@H](Cc2ccc(O)c(Br)c2)N(C)C(=O)[C@H](Cc2ccccc2)N2C(=O)[C@H](CC[C@H]2O)NC1=O [Molassamide B, molassamide B]	Satisfied
CCCC(=O)N1CCCC1C(=O)NC(C(=O)NC1C(=O)NC(CC(C)C)C(=O)NC2CCC(O)N(C2=O)C(Cc2ccccc2)C(=O)N(C)C(Cc2ccc(O)cc2)C(=O)NC(C(C)C)C(=O)OC1C)C(C)OC(=O)C1CCCN1C(=O)CCC (stereo not drawn) [Rivulariapeptolide 1185, rivulariapeptolide 1185]	Satisfied

# input Quick check: does CC=C1NC(=O)[C@@H](NC(=O)[C@@H](NC(=O)[C@@H]2CCCN2C(=O)CCC)[C@@H](C)O)[C@@H](C)OC(=O)[C@H](C(C)C)NC(=O)[C@H](Cc2ccc(O)cc2)N(C)C(=O)[C@H](Cc2ccccc2)N2C(=O)[C@H](CC[C@H]2O)NC1=O [Rivulariapeptolide 988, rivulariapeptolide 988] have Mean (RFU/s) greater than or equal to 0.1 RFU/s?
# output Satisfied

# input Quick check: does CC=C1NC(=O)[C@@H](NC(=O)[C@@H](NC(=O)[C@@H]2CCCN2C(=O)CCC)[C@@H](C)OC(=O)C2CCCN2C(=O)CCC)[C@@H](C)OC(=O)[C@H](C(C)C)NC(=O)[C@H](Cc2ccc(O)cc2)N(C)C(=O)[C@H](Cc2ccccc2)N2C(=O)[C@H](CC[C@H]2O)NC1=O (stereo partly drawn) [Rivulariapeptolide 1155, rivulariapeptolide 1155] have Mean (RFU/s) greater than or equal to 0.1 RFU/s?
# output Not satisfied

# input Could you verify whether the entry C/C=C1\NC(=O)[C@@H](NC(=O)[C@@H](NC(=O)[C@H](C)NC(=O)CCC)[C@@H](C)O)[C@@H](C)OC(=O)[C@H](C(C)C)NC(=O)[C@H](Cc2ccc(O)cc2)N(C)C(=O)[C@H](Cc2ccccc2)N2C(=O)[C@H](CC[C@H]2O)NC1=O [Molassamide, molassamide] shows Mean (RFU/s) of no less than 0.1 RFU/s?
# output Satisfied

---

Can you tell me Mean (RFU/s) for the items I'm about to list?
- Measured On: Elastase (Sus scrofa)
- Construct: purchased Sigma-Aldrich
- Test Protocol: Elastase inhibition, fluorogenic substrate assay (MeOSuc-Ala-Ala-Pro-Val-AMC)
- Assay type: biochemical, Sus domesticus
- Condition: Elastase; inhibitor concentration 333.333 nM; 40 min pre-incubation
Give bare numbers, in RFU/s.

Compound	Experimental Readout	Reported Measurement
CC=C1NC(=O)[C@@H](NC(=O)[C@@H](NC(=O)[C@@H]2CCCN2C(=O)CCC)[C@@H](C)O)[C@@H](C)OC(=O)[C@H](C(C)C)NC(=O)[C@H](Cc2ccc(O)cc2)N(C)C(=O)[C@H](Cc2ccccc2)N2C(=O)[C@H](CC[C@H]2O)NC1=O [Rivulariapeptolide 988, rivulariapeptolide 988]	Mean (RFU/s)	0.018
CC=C1NC(=O)[C@@H](NC(=O)[C@@H](NC(=O)[C@@H]2CCCN2C(=O)CCC)[C@@H](C)OC(=O)C2CCCN2C(=O)CCC)[C@@H](C)OC(=O)[C@H](C(C)C)NC(=O)[C@H](Cc2ccc(O)cc2)N(C)C(=O)[C@H](Cc2ccccc2)N2C(=O)[C@H](CC[C@H]2O)NC1=O (stereo partly drawn) [Rivulariapeptolide 1155, rivulariapeptolide 1155]	Mean (RFU/s)	0
C/C=C1\NC(=O)[C@@H](NC(=O)[C@@H](NC(=O)[C@H](C)NC(=O)CCC)[C@@H](C)O)[C@@H](C)OC(=O)[C@H](C(C)C)NC(=O)[C@H](Cc2ccc(O)c(Br)c2)N(C)C(=O)[C@H](Cc2ccccc2)N2C(=O)[C@H](CC[C@H]2O)NC1=O [Molassamide B, molassamide B]	Mean (RFU/s)	0
C/C=C1\NC(=O)[C@@H](NC(=O)[C@@H](NC(=O)[C@H](C)NC(=O)CCC)[C@@H](C)O)[C@@H](C)OC(=O)[C@H](C(C)C)NC(=O)[C@H](Cc2ccc(O)cc2)N(C)C(=O)[C@H](Cc2ccccc2)N2C(=O)[C@H](CC[C@H]2O)NC1=O [Molassamide, molassamide]	Mean (RFU/s)	0.03867
CC=C1NC(=O)[C@@H](NC(=O)[C@@H](NC(=O)[C@@H]2CCCN2C(=O)CCC)[C@@H](C)OC(=O)C2CCCN2C(=O)CCC)[C@@H](C)OC(=O)[C@H](C(C)C)NC(=O)[C@H](Cc2ccc(O)cc2)N(C)C(=O)[C@H](CC(C)C)N2C(=O)[C@H](CC[C@H]2O)NC1=O (stereo partly drawn) [Rivulariapeptolide 1121, rivulariapeptolide 1121]	Mean (RFU/s)	0

Now look at this one.
# input Input CCCC(=O)N1CCCC1C(=O)NC(C(=O)NC1C(=O)NC(CC(C)C)C(=O)NC2CCC(O)N(C2=O)C(Cc2ccccc2)C(=O)N(C)C(Cc2ccc(O)cc2)C(=O)NC(C(C)C)C(=O)OC1C)C(C)OC(=O)C1CCCN1C(=O)CCC (stereo not drawn) [Rivulariapeptolide 1185, rivulariapeptolide 1185] , output reported Mean (RFU/s).
# output 0.02233

---

- Measured On: Proteinase K (Parengyodontium album, UniProt P06873)
- Construct: purchased Roche
- Sequence (P06873 106-384): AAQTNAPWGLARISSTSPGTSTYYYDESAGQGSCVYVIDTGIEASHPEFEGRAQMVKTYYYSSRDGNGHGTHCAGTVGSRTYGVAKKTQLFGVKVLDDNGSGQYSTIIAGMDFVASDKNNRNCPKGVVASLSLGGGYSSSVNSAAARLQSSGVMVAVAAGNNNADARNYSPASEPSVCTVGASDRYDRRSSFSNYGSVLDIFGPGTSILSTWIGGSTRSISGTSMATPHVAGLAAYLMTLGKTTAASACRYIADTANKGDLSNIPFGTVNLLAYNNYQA
- Test Protocol: Proteinase K inhibition, fluorogenic substrate assay (Suc-Ala-Ala-Pro-Phe-AMC)
- Type: biochemical, Tritirachium album
- Condition: Proteinase K; inhibitor concentration 0.0508053 nM; 40 min pre-incubation
Consider the following compounds; for each one, report its Mean (RFU/s).
Answers are plain numbers, in RFU/s.

Provide Mean (RFU/s) for all items below, preserving their order.
1. CC=C1NC(=O)[C@@H](NC(=O)[C@@H](NC(=O)[C@@H]2CCCN2C(=O)CCC)[C@@H](C)O)[C@@H](C)OC(=O)[C@H](C(C)C)NC(=O)[C@H](Cc2ccc(O)cc2)N(C)C(=O)[C@H](Cc2ccccc2)N2C(=O)[C@H](CC[C@H]2O)NC1=O [Rivulariapeptolide 988, rivulariapeptolide 988]
2. CCCC(=O)N1CCCC1C(=O)NC(C(=O)NC1C(=O)NC(CC(C)C)C(=O)NC2CCC(O)N(C2=O)C(Cc2ccccc2)C(=O)N(C)C(Cc2ccc(O)cc2)C(=O)NC(C(C)C)C(=O)OC1C)C(C)OC(=O)C1CCCN1C(=O)CCC (stereo not shown) [Rivulariapeptolide 1185, rivulariapeptolide 1185]
3. C/C=C1\NC(=O)[C@@H](NC(=O)[C@@H](NC(=O)[C@H](C)NC(=O)CCC)[C@@H](C)O)[C@@H](C)OC(=O)[C@H](C(C)C)NC(=O)[C@H](Cc2ccc(O)cc2)N(C)C(=O)[C@H](Cc2ccccc2)N2C(=O)[C@H](CC[C@H]2O)NC1=O [Molassamide, molassamide]
4. CC=C1NC(=O)[C@@H](NC(=O)[C@@H](NC(=O)[C@@H]2CCCN2C(=O)CCC)[C@@H](C)OC(=O)C2CCCN2C(=O)CCC)[C@@H](C)OC(=O)[C@H](C(C)C)NC(=O)[C@H](Cc2ccc(O)cc2)N(C)C(=O)[C@H](Cc2ccccc2)N2C(=O)[C@H](CC[C@H]2O)NC1=O (stereo partly shown) [Rivulariapeptolide 1155, rivulariapeptolide 1155]

# output
6.083
6.418
6.609
6.603

---

- Measured On: Elastase (Sus scrofa, UniProt P00772)
- Construct: purchased Sigma-Aldrich
- Test Protocol: Elastase inhibition, fluorogenic substrate assay (MeOSuc-Ala-Ala-Pro-Val-AMC)
- Type: biochemical, Sus domesticus
- Condition: Elastase; inhibitor concentration 3000 nM; 40 min pre-incubation
Experimental Readout: Mean (RFU/s)
Answers are plain numbers, in RFU/s.

Compound	Mean (RFU/s)
C/C=C1\NC(=O)[C@@H](NC(=O)[C@@H](NC(=O)[C@H](C)NC(=O)CCC)[C@@H](C)O)[C@@H](C)OC(=O)[C@H](C(C)C)NC(=O)[C@H](Cc2ccc(O)cc2)N(C)C(=O)[C@H](Cc2ccccc2)N2C(=O)[C@H](CC[C@H]2O)NC1=O [Molassamide, molassamide]	0

# input Check Elastase (Sus scrofa, UniProt P00772) data and give Mean (RFU/s) for CC=C1NC(=O)[C@@H](NC(=O)[C@@H](NC(=O)[C@@H]2CCCN2C(=O)CCC)[C@@H](C)OC(=O)C2CCCN2C(=O)CCC)[C@@H](C)OC(=O)[C@H](C(C)C)NC(=O)[C@H](Cc2ccc(O)cc2)N(C)C(=O)[C@H](CC(C)C)N2C(=O)[C@H](CC[C@H]2O)NC1=O (some centres unmarked) [Rivulariapeptolide 1121, rivulariapeptolide 1121] .
# output 0
